- System: MDA-MB-231 breast
- EXPERIMENT: NCI tumour cell line growth inhibition, 48 h
Listing: log10 of TGI of selected compounds
RESULT_TYPE: log10 of TGI (log10 of the value in µM)

SMILES_STRUCTURE | TARGET | log10 of TGI
O=C(Nc1ccc(N2CCNCC2)cc1)c1[nH]ncc1Nc1ncnc2sc3c(c12)CCC3 | MDA-MB-231 breast | 0.31
C=C1C(=O)O[C@H]2[C@H]1CC/C(COC(=O)c1cc3cc(F)ccc3[nH]1)=C\CC[C@@]1(C)O[C@@H]21 | MDA-MB-231 breast | 0.54
Cc1ccc(C(=O)N(C2CCCCC2)C2CCCCC2)cc1N=NN(C)C | MDA-MB-231 breast | 1.41
Cc1ccc2c(=O)cc(-c3csc4ccccc34)[nH]c2n1 | MDA-MB-231 breast | -1.08
c1ccc(CNc2c3c(nc4ccccc24)CCC3)cc1 | MDA-MB-231 breast | 1.43
COc1ccc2c(c1)/C(=C\c1c(C)nc3sc(C)cn13)C(=O)N2C | MDA-MB-231 breast | 1.81
COc1ccc2nc3cc(Cl)ccc3c(NCCCCCC(=O)NC(COc3cnc4c(ccc5cccnc54)c3)COc3cnc4c(ccc5cccnc54)c3)c2c1 | MDA-MB-231 breast | 1.64
COC(=O)N[C@H]1CCc2c(Br)c(OC)c(OC)c(OC)c2-c2ccc(SC)c(=O)cc21 | MDA-MB-231 breast | 1.15
